Record set of MEAN CpLDH INHIBITION (%) for target or system recombinant CpLDH protein (Cryptosporidium parvum, UniProt Q9GT92, F198L/K295E/R251K).
Measured parameter: MEAN CpLDH INHIBITION (%)

[[record]]
molecule = "C=C(C)[C@@H]1CC[C@]2(CO)CC[C@]3(C)[C@H](CC[C@@H]4[C@@]5(C)CC[C@H](O)C(C)(C)[C@@H]5CC[C@]43C)[C@@H]12"
target_desc = "recombinant CpLDH protein (Cryptosporidium parvum, UniProt Q9GT92, F198L/K295E/R251K)"
val = "-25.29%"

[[record]]
molecule = "CC(=O)/C(=C\\c1cccc([N+](=O)[O-])c1)C(=O)Nc1ccccc1C"
target_desc = "recombinant CpLDH protein (Cryptosporidium parvum, UniProt Q9GT92, F198L/K295E/R251K)"
val = "-26.76%"

[[record]]
molecule = "CCOC(=O)/N=C(\\N)SCc1ccccc1"
target_desc = "recombinant CpLDH protein (Cryptosporidium parvum, UniProt Q9GT92, F198L/K295E/R251K)"
val = "-0.38%"

[[record]]
molecule = "O=[Se]([O-])[O-].[Na+].[Na+]"
target_desc = "recombinant CpLDH protein (Cryptosporidium parvum, UniProt Q9GT92, F198L/K295E/R251K)"
val = "-3.84%"

[[record]]
molecule = "C=C1C(=O)O[C@H]2/C=C(/CO)[C@H](OC(C)=O)C[C@H](O)/C(C)=C\\[C@H](OC(=O)[C@@H](C)CC)[C@H]12"
target_desc = "recombinant CpLDH protein (Cryptosporidium parvum, UniProt Q9GT92, F198L/K295E/R251K)"
val = "-63.04%"

[[record]]
molecule = "[Cl][Cd][Cl]"
target_desc = "recombinant CpLDH protein (Cryptosporidium parvum, UniProt Q9GT92, F198L/K295E/R251K)"
val = "64.58%"

[[record]]
molecule = "CCCC[S+]([O-])CC(CO)NC(=O)/C=C/c1c(C)[nH]c(=O)[nH]c1=O (stereo not shown)"
target_desc = "recombinant CpLDH protein (Cryptosporidium parvum, UniProt Q9GT92, F198L/K295E/R251K)"
val = "-30.83%"

[[record]]
molecule = "CCOC(OC1=C(C#N)CCC1)C(C)[Se]c1ccccc1 (stereo not shown)"
target_desc = "recombinant CpLDH protein (Cryptosporidium parvum, UniProt Q9GT92, F198L/K295E/R251K)"
val = "-21.95%"

[[record]]
molecule = "CCSC(=O)N1c2ccc(OC)cc2C=CC1C#N (stereo not shown)"
target_desc = "recombinant CpLDH protein (Cryptosporidium parvum, UniProt Q9GT92, F198L/K295E/R251K)"
val = "-41.74%"

[[record]]
molecule = "COc1ccc(-n2/c(=N/C(=S)N(C)C)ss/c2=N\\C(=S)N(C)C)cc1"
target_desc = "recombinant CpLDH protein (Cryptosporidium parvum, UniProt Q9GT92, F198L/K295E/R251K)"
val = "-55.77%"

[[record]]
molecule = "O=c1ncccn1C1OC(CO)C(O)C1F (stereo not shown)"
target_desc = "recombinant CpLDH protein (Cryptosporidium parvum, UniProt Q9GT92, F198L/K295E/R251K)"
val = "-50.28%"

[[record]]
molecule = "CCOC(=O)Nc1cc2c(c(N)n1)N=C(c1ccccc1)CN2"
target_desc = "recombinant CpLDH protein (Cryptosporidium parvum, UniProt Q9GT92, F198L/K295E/R251K)"
val = "-9.40%"

[[record]]
molecule = "O=C(CC1(O)C(=O)Nc2c(Cl)ccc(Cl)c21)c1ccc(Cl)cc1 (stereo not shown)"
target_desc = "recombinant CpLDH protein (Cryptosporidium parvum, UniProt Q9GT92, F198L/K295E/R251K)"
val = "-7.08%"

[[record]]
molecule = "COc1cc(OC)c(OC)cc1/C=C/c1ccnc2ccccc12"
target_desc = "recombinant CpLDH protein (Cryptosporidium parvum, UniProt Q9GT92, F198L/K295E/R251K)"
val = "-22.71%"

[[record]]
molecule = "COC(=O)NC1C(C)OC(OC2C/C=C(/C)C3C=CC4C(OC5CC(OC6CCC(OC7CC(O)C(OC8CCC(O)C(C)O8)C(C)O7)C(C)O6)C(OC(C)=O)C(C)O5)C(C)CC(C)C4C3(C)/C(O)=C3/C(=O)OC4(CC(C=O)=CC(O)C4/C=C\\2C)C3=O)CC1(C)[N+](=O)[O-] (stereo not shown)"
target_desc = "recombinant CpLDH protein (Cryptosporidium parvum, UniProt Q9GT92, F198L/K295E/R251K)"
val = "-2.71%"

[[record]]
molecule = "CON(C)C(=O)C1CCCO1 (stereo not shown)"
target_desc = "recombinant CpLDH protein (Cryptosporidium parvum, UniProt Q9GT92, F198L/K295E/R251K)"
val = "-28.71%"

[[record]]
molecule = "Cc1nc(Nc2ccc(Cl)c(Cl)c2)sc1C(/C=C/c1ccc2c(c1)OCO2)=N/Nc1ccc([N+](=O)[O-])cc1[N+](=O)[O-]"
target_desc = "recombinant CpLDH protein (Cryptosporidium parvum, UniProt Q9GT92, F198L/K295E/R251K)"
val = "-79.51%"

[[record]]
molecule = "CCN1C=C/C(=C\\C=C\\c2cc[n+](CC)c3ccccc23)c2ccccc21.[I-]"
target_desc = "recombinant CpLDH protein (Cryptosporidium parvum, UniProt Q9GT92, F198L/K295E/R251K)"
val = "-25.08%"

[[record]]
molecule = "COc1ccc(-c2cc(=O)c3c(O)cc(O)cc3o2)cc1OC"
target_desc = "recombinant CpLDH protein (Cryptosporidium parvum, UniProt Q9GT92, F198L/K295E/R251K)"
val = "-10.13%"

[[record]]
molecule = "Cc1ccc(CC2(OCCN(C)C)CCC(C(C)(C)C)CC2)cc1.O=C(O)/C=C/C(=O)O (stereo not shown) [NSC670229]"
target_desc = "recombinant CpLDH protein (Cryptosporidium parvum, UniProt Q9GT92, F198L/K295E/R251K)"
val = "-52.64%"

[[record]]
molecule = "CC(C)(C)NCCC(O)c1cc(C(F)(F)F)nc2c(C(F)(F)F)cccc12.O=P(O)(O)O (stereo not shown)"
target_desc = "recombinant CpLDH protein (Cryptosporidium parvum, UniProt Q9GT92, F198L/K295E/R251K)"
val = "-15.30%"

[[record]]
molecule = "CCCCCCCCCCCCCCCC[N+](C)(C)CCl.[Cl-]"
target_desc = "recombinant CpLDH protein (Cryptosporidium parvum, UniProt Q9GT92, F198L/K295E/R251K)"
val = "-0.06%"

[[record]]
molecule = "CC(=O)O[C@H]1C[C@H](O[C@H]2[C@@H](O)C[C@H](O[C@H]3[C@@H](O)C[C@H](O[C@H]4CC[C@@]5(C)[C@H](CC[C@@H]6[C@@H]5CC[C@]5(C)[C@@H](C7=CC(=O)OC7)CC[C@]65O)C4)O[C@@H]3C)O[C@@H]2C)O[C@H](C)[C@H]1O[C@@H]1O[C@H](CO)[C@@H](O)[C@H](O)[C@H]1O"
target_desc = "recombinant CpLDH protein (Cryptosporidium parvum, UniProt Q9GT92, F198L/K295E/R251K)"
val = "-151.91%"

[[record]]
molecule = "Nc1nc(SCc2ccccc2Cl)c2[nH]cnc2n1"
target_desc = "recombinant CpLDH protein (Cryptosporidium parvum, UniProt Q9GT92, F198L/K295E/R251K)"
val = "-1.63%"

[[record]]
molecule = "C(=N\\NC1=NCCN1)/c1c2ccccc2c(/C=N/NC2=NCCN2)c2ccccc12"
target_desc = "recombinant CpLDH protein (Cryptosporidium parvum, UniProt Q9GT92, F198L/K295E/R251K)"
val = "-53.76%"

[[record]]
molecule = "OCC1OC(n2cnc3c(=S)nc[nH]c32)C(O)C1O (stereo not shown)"
target_desc = "recombinant CpLDH protein (Cryptosporidium parvum, UniProt Q9GT92, F198L/K295E/R251K)"
val = "-17.89%"

[[record]]
molecule = "CC1=CC(=C(c2ccc(N)cc2)c2ccc(N)cc2)C=CC1=N.Cl"
target_desc = "recombinant CpLDH protein (Cryptosporidium parvum, UniProt Q9GT92, F198L/K295E/R251K)"
val = "-24.21%"

[[record]]
molecule = "Cc1ccc(Cl)c2c(N=Nc3ccccc3[N+](=O)[O-])c(O)[nH]c12"
target_desc = "recombinant CpLDH protein (Cryptosporidium parvum, UniProt Q9GT92, F198L/K295E/R251K)"
val = "-15.17%"

[[record]]
molecule = "C[C@]12CC[C@H](OC(=O)Cc3ccc(N(CCCl)CCCl)cc3)C[C@@H]1CC[C@@H]1[C@@H]2CC[C@]2(C)NC(=O)CC[C@@H]12"
target_desc = "recombinant CpLDH protein (Cryptosporidium parvum, UniProt Q9GT92, F198L/K295E/R251K)"
val = "-205.36%"

[[record]]
molecule = "O=C(N=Nc1c(O)[nH]c2ccccc12)c1ccccc1O"
target_desc = "recombinant CpLDH protein (Cryptosporidium parvum, UniProt Q9GT92, F198L/K295E/R251K)"
val = "-38.57%"

[[record]]
molecule = "CCCc1c(Cl)nc(Cl)nc1Cl"
target_desc = "recombinant CpLDH protein (Cryptosporidium parvum, UniProt Q9GT92, F198L/K295E/R251K)"
val = "-32.10%"

[[record]]
molecule = "COC(=O)C(=O)C(C(=O)Nc1cccc(C)c1C)C1Sc2ccccc2NC1=O (stereo not shown)"
target_desc = "recombinant CpLDH protein (Cryptosporidium parvum, UniProt Q9GT92, F198L/K295E/R251K)"
val = "-26.59%"

[[record]]
molecule = "CCC(=O)OC1CCn2c1nc1c2C(=O)C(C)=C(N2CC2)C1=O (stereo not shown)"
target_desc = "recombinant CpLDH protein (Cryptosporidium parvum, UniProt Q9GT92, F198L/K295E/R251K)"
val = "-28.42%"

[[record]]
molecule = "NC(=Nc1nc(-c2ccccn2)cc2ccccc12)c1ccccn1"
target_desc = "recombinant CpLDH protein (Cryptosporidium parvum, UniProt Q9GT92, F198L/K295E/R251K)"
val = "-28.84%"

